src = patent US20240408169A1

Listing of recorded GI50 by entry.
- Test system: OVCAR3 cells
- protocol-description: MTT proliferation assay, OVCAR3;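 also: compound given as an 8- or 10-point series, one day after plating, with exposure covering roughly 3-4 cell doublings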
- Format: cell-based
- test-context: 5 days compound exposure, 1:3 serial dilution starting at 10 μM
*1 amine or outer side, *2 acyl side, *3 side chain or, on linkers, in order; H or OH if unused. Where a SMILES comes first, the peptide text is derived from it. Bridges are numbered along the chain shown (N, C = ends). [ ]: non-standard residue; d: D form. The star is where a group is joined. X53 = CN1[C@@H]2CC[C@H]1CN(c1ccc(-c3ccc(Cl)cc3C[C@@H](C(=O)[*:2])N(C)[*:1])cc1)C2; NMePhe(2-(4-MorPh),5-Cl) = CN[C@@H](Cc1cc(Cl)ccc1-c1ccc(N2CCOCC2)cc1)C(=O)O; NMehhhLys(Me) = CN([C@@H](CCCCCCCN(C)[*:3])C(=O)[*:2])[*:1]; cBuCO(3,3-F2-1-CF3) = O=C(C1(C(F)(F)F)CC(F)(F)C1)*; Pro(trans-4-F) = O=C(O)[C@@H]1C[C@@H](F)CN1; Gly(cPr) = N[C@H](C(=O)O)C1CC1
measured-quantity: GI50 (nM)

INSERT INTO measurements (molecule, result_unit, readout_value) VALUES
  ('CC(C)C[C@@H]1NC(=O)[C@@H](N(C)C(=O)[C@@H](NC(=O)[C@@H]2C[C@@H](F)CN2C(=O)C2(C(F)(F)F)CC(F)(F)C2)C2CC2)CCCCCCCN(C)C(=O)[C@H](Cc2cc(Cl)ccc2-c2ccc(N3C[C@H]4CC[C@@H](C3)N4C)cc2)N(C)C1=O [Example 362] ({cBuCO(3,3-F2-1-CF3)}-[Pro(trans-4-F)][Gly(cPr)][NMehhhLys(Me)]L[X53]; lactam 3-C)', 'nM', 10),
  ('CC(C)C[C@@H]1NC(=O)[C@@H](N(C)C(=O)[C@H](CCC(=O)N(C)C)NC(=O)[C@@H]2C[C@@H](F)CN2C(=O)C2(C(F)(F)F)CC(F)(F)C2)CCCCCCCN(C)C(=O)[C@H](Cc2cc(Cl)ccc2-c2ccc(N3CCOCC3)cc2)N(C)C1=O [Example 419] ({cBuCO(3,3-F2-1-CF3)}-[Pro(trans-4-F)]E(NMe2)[NMehhhLys(Me)]L[NMePhe(2-(4-MorPh),5-Cl)]; lactam 3-C)', 'nM', 20);

###

- measured-target: CyclinA2/CDK2 (Homo sapiens)
- Construct: purchased CRELUX Protein Services
- protocol-description: Fluorescence Polarization (FP) competitive binding assay, Cyclin A2/Cdk2;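 also: plates equilibrated two hours at room temperature before polarization reading, IC50 fitted from eight-concentration compound titration curves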
- test-context: 8 nM Cyclin A2/Cdk2, 2 nM FAM probe; average of 2-3 independent experiments; read-out: Cyclin A FP IC50
*1 amine or outer side, *2 acyl side, *3 side chain or, on linkers, in order; H or OH if unused. Where a SMILES comes first, the peptide text is derived from it. Bridges are numbered along the chain shown (N, C = ends). [ ]: non-standard residue; d: D form. The star is where a group is joined. X39 = CN1CCC(n2cc(-c3ccc(-c4ccc(Cl)cc4C[C@@H](C(=O)[*:2])N(C)[*:1])cc3)cn2)CC1; X7 = CC(C)C(=O)N1[C@H]2CC[C@@H]1C=C(c1ccc(F)cc1C[C@@H](C(=O)[*:2])N(C)[*:1])C2; X38 = CN([C@@H](Cc1cc(Cl)ccc1-c1ccc(N2C[C@H]3COC[C@H]3C2)cc1)C(=O)[*:2])[*:1]; X137 = CN([C@@H](Cc1cc(F)ccc1-c1cnn(S(C)(=O)=O)c1)C(=O)[*:2])[*:1]; X68 = CN([C@@H](Cc1cc(Cl)ccc1-c1cnn(C2CC2)c1)C(=O)[*:2])[*:1]; X14 = Cc1nc(C)c(-c2ccc(Cl)cc2C[C@@H](C(=O)[*:2])N(C)[*:1])s1; NMehhhLys(Me) = CN([C@@H](CCCCCCCN(C)[*:3])C(=O)[*:2])[*:1]; X22 = CN([C@@H](Cc1cc(Cl)ccc1-c1cnn(C)c1)C(=O)[*:2])[*:1]; NMe(hhhLys) = CN([C@@H](CCCCCCCN[*:3])C(=O)[*:2])[*:1]; Cyclobutanecarbonyl(1-CF3) = O=C(C1(C(F)(F)F)CCC1)*; cBuCO(3,3-F2-1-CF3) = O=C(C1(C(F)(F)F)CC(F)(F)C1)*; Pro(trans-4-F) = O=C(O)[C@@H]1C[C@@H](F)CN1; Gly(cPr) = N[C@H](C(=O)O)C1CC1
measured-quantity: IC50

INSERT INTO results (compound, measured_target, readout_value) VALUES
  ('CC(C)C[C@@H]1NC(=O)[C@@H](N(C)C(=O)[C@@H](NC(=O)[C@@H]2C[C@@H](F)CN2C(=O)C2(C(F)(F)F)CCC2)C2CC2)CCCCCCCN(C)C(=O)[C@H](Cc2cc(Cl)ccc2-c2cnn(C)c2)N(C)C1=O [Example 185] ({Cyclobutanecarbonyl(1-CF3)}-[Pro(trans-4-F)][Gly(cPr)][NMehhhLys(Me)]L[X22]; lactam 3-C)', 'CyclinA2/CDK2 (Homo sapiens)', '20 nM'),
  ('CC(C)C[C@@H]1NC(=O)[C@@H](N(C)C(=O)[C@@H](NC(=O)[C@@H]2C[C@@H](F)CN2C(=O)C2(C(F)(F)F)CC(F)(F)C2)C2CC2)CCCCCCCN(C)C(=O)[C@H](Cc2cc(Cl)ccc2-c2ccc(N3C[C@H]4COC[C@H]4C3)cc2)N(C)C1=O [Example 363] ({cBuCO(3,3-F2-1-CF3)}-[Pro(trans-4-F)][Gly(cPr)][NMehhhLys(Me)]L[X38]; lactam 3-C)', 'CyclinA2/CDK2 (Homo sapiens)', '20 nM'),
  ('CC(C)C[C@@H]1NC(=O)[C@@H](N(C)C(=O)[C@@H](NC(=O)[C@@H]2C[C@@H](F)CN2C(=O)C2(C(F)(F)F)CC(F)(F)C2)C2CC2)CCCCCCCN(C)C(=O)[C@H](Cc2cc(Cl)ccc2-c2cnn(C3CC3)c2)N(C)C1=O [Example 110] ({cBuCO(3,3-F2-1-CF3)}-[Pro(trans-4-F)][Gly(cPr)][NMehhhLys(Me)]L[X68]; lactam 3-C)', 'CyclinA2/CDK2 (Homo sapiens)', '20 nM'),
  ('CC(C)C[C@@H]1NC(=O)[C@@H](N(C)C(=O)[C@@H](CC(=O)[C@@H]2C[C@@H](F)CN2C(=O)C2(C(F)(F)F)CC(F)(F)C2)C2CC2)CCCCCCN(C)C(=O)[C@H](Cc2cc(Cl)ccc2C2=CCOCC2)N(C)C1=O', 'CyclinA2/CDK2 (Homo sapiens)', '20 nM'),
  ('CC(C)C[C@@H]1NC(=O)[C@@H](N(C)C(=O)[C@@H](NC(=O)[C@@H]2C[C@@H](F)CN2C(=O)C2(C(F)(F)F)CC(F)(F)C2)C2CC2)CCCCCCCN(C)C(=O)[C@H](Cc2cc(Cl)ccc2-c2ccc(-c3cnn(C4CCN(C)CC4)c3)cc2)N(C)C1=O [Example 380] ({cBuCO(3,3-F2-1-CF3)}-[Pro(trans-4-F)][Gly(cPr)][NMehhhLys(Me)]L[X39]; lactam 3-C)', 'CyclinA2/CDK2 (Homo sapiens)', '30 nM'),
  ('CC(C)C[C@@H]1NC(=O)[C@@H](N(C)C(=O)[C@@H](NC(=O)[C@@H]2C[C@@H](F)CN2C(=O)C2(C(F)(F)F)CCC2)C2CC2)CCCCCCCNC(=O)[C@H](Cc2cc(Cl)ccc2-c2cnn(C3CC3)c2)N(C)C1=O [Example 188] ({Cyclobutanecarbonyl(1-CF3)}-[Pro(trans-4-F)][Gly(cPr)][NMe(hhhLys)]L[X68]; lactam 3-C)', 'CyclinA2/CDK2 (Homo sapiens)', '20 nM'),
  ('CC(C)C[C@@H]1NC(=O)[C@@H](N(C)C(=O)[C@@H](NC(=O)[C@@H]2C[C@@H](F)CN2C(=O)C2(C(F)(F)F)CCC2)C2CC2)CC=CCCCCN(C)C(=O)[C@H](Cc2cc(F)ccc2-c2cnn(CC(F)F)c2)N(C)C1=O', 'CyclinA2/CDK2 (Homo sapiens)', '40 nM'),
  ('Cc1nc(C)c(-c2ccc(Cl)cc2C[C@H]2C(=O)N(C)CCCCCCC[C@H](N(C)C(=O)[C@@H](NC(=O)[C@@H]3C[C@@H](F)CN3C(=O)C3(C(F)(F)F)CC(F)(F)C3)C3CC3)C(=O)N[C@@H](CC(C)C)C(=O)N2C)s1 [Example 207] ({cBuCO(3,3-F2-1-CF3)}-[Pro(trans-4-F)][Gly(cPr)][NMehhhLys(Me)]L[X14]; lactam 3-C)', 'CyclinA2/CDK2 (Homo sapiens)', '50 nM'),
  ('CC(=O)N1CC=C(c2ccc(Cl)cc2C[C@H]2C(=O)NCCCC=CCC[C@H](N(C)C(=O)[C@@H](NC(=O)[C@@H]3C[C@@H](F)CN3C(=O)C3(C(F)(F)F)CC(F)(F)C3)C3CC3)C(=O)N[C@@H](CC(C)C)C(=O)N2C)CC1', 'CyclinA2/CDK2 (Homo sapiens)', '20 nM'),
  ('CC(C)C[C@@H]1NC(=O)[C@@H](N(C)C(=O)[C@@H](NC(=O)[C@@H]2C[C@@H](F)CN2C(=O)C2(C(F)(F)F)CC(F)(F)C2)C2CC2)CCCCCCCN(C)C(=O)[C@H](Cc2cc(F)ccc2-c2cnn(S(C)(=O)=O)c2)N(C)C1=O [Example 95] ({cBuCO(3,3-F2-1-CF3)}-[Pro(trans-4-F)][Gly(cPr)][NMehhhLys(Me)]L[X137]; lactam 3-C)', 'CyclinA2/CDK2 (Homo sapiens)', '50 nM'),
  ('CC(C)C[C@@H]1NC(=O)[C@@H](N(C)C(=O)[C@@H](NC(=O)[C@@H]2C[C@@H](F)CN2C(=O)C2(C(F)(F)F)CC(F)(F)C2)C2CC2)CCC=CCCCNC(=O)[C@H](Cc2cc(Cl)ccc2-c2cnn(S(C)(=O)=O)c2)N(C)C1=O', 'CyclinA2/CDK2 (Homo sapiens)', '50 nM'),
  ('CC(C)C[C@@H]1NC(=O)[C@@H](NC(=O)[C@@H](NC(=O)[C@@H]2C[C@@H](F)CN2C(=O)C2(C(F)(F)F)CC(F)(F)C2)C2CC2)CC=CCCCCNC(=O)[C@H](Cc2cc(Cl)ccc2Cl)N(C)C1=O', 'CyclinA2/CDK2 (Homo sapiens)', '90 nM'),
  ('CC(C)C[C@@H]1NC(=O)[C@@H](N(C)C(=O)[C@@H](NC(=O)[C@@H]2C[C@@H](F)CN2C(=O)C2(C(F)(F)F)CC(F)(F)C2)C2CC2)CCCCCCCNC(=O)[C@H](Cc2cc(F)ccc2C2=C[C@H]3CC[C@@H](C2)N3C(=O)C(C)C)N(C)C1=O [Example 316] ({cBuCO(3,3-F2-1-CF3)}-[Pro(trans-4-F)][Gly(cPr)][NMe(hhhLys)]L[X7]; lactam 3-C)', 'CyclinA2/CDK2 (Homo sapiens)', '20 nM');
